Reference source for all entries: the supplement of paper PMC10065799

# tgt: MERTK (UniProt Q12866)
# Sequence (Q12866 whole entry, looked up): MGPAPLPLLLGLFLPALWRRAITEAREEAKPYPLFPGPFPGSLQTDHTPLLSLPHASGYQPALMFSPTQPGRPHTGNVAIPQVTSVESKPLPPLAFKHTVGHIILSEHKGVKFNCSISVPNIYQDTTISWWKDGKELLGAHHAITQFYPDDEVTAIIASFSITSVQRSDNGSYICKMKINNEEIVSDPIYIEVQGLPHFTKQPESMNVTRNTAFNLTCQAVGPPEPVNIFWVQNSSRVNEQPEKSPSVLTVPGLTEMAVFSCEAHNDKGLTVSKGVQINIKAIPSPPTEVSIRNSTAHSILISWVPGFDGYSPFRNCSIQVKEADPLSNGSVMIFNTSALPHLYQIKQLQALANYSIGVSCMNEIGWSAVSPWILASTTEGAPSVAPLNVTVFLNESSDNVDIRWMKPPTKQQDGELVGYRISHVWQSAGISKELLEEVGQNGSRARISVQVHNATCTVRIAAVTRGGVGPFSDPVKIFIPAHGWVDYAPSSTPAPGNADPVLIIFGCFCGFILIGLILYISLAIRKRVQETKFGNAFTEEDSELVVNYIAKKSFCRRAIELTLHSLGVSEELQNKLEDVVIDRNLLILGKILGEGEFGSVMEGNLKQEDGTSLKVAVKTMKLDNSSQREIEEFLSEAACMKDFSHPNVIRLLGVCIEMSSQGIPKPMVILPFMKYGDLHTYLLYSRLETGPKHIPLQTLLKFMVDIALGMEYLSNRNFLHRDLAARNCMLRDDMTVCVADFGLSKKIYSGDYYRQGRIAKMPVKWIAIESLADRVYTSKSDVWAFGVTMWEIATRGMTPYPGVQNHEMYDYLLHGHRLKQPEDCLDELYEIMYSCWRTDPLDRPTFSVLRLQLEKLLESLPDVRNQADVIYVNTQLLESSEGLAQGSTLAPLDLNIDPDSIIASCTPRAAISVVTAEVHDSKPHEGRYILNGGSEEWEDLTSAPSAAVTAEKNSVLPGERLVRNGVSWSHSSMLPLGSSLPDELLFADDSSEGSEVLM
# assay.details: phosphorylation enrichment, bacterial display (enrichment ratio); higher = better substrate or ligand; peptides without Tyr show the background
// reported phosphorylation enrichment for each item listed
In your answer, state the number alone without any accompanying words.

LIPIKYKAMKK [MYD88_Y257]; 0.413

Problem: What does the data say about its phosphorylation enrichment? Entry: YFVVEYRDQKP [MUC17_Y4332]
Solution: 4.97

Problem: What does the data say about its phosphorylation enrichment? Entry: AQAERYDDMAA [YWHAG_Y20_E15A]
Solution: 0.389

Problem: What does the data say about its phosphorylation enrichment? Entry: HRGHLYLAIEF [TEK_Y899_Y897H_YF]
Solution: 1.64

Problem: What does the data say about its phosphorylation enrichment? Entry: FPAVGYHKPHI [IDS_Y225_L221P]
Solution: 0.374

Problem: What does the data say about its phosphorylation enrichment? Entry: CTTIHYNHMCN [TP53_Y234_Y236H]
Solution: 0.476

Problem: What does the data say about its phosphorylation enrichment? Entry: RLNWIYFKDQT [RS1_Y165_YF]
Solution: 0.49

Problem: What does the data say about its phosphorylation enrichment? Entry: IRSGIYFKPES [L2HGDH_Y102_H98R_YF]
Solution: 4.3

====

# tgt: c-Src SH2
# assay.details: SH2 binding enrichment of the phosphorylated peptide, bacterial display (enrichment ratio); higher = better substrate or ligand; peptides without Tyr show the background
// reported SH2 binding enrichment for each item listed
In your answer, state the number alone without any accompanying words.

Here are 3 sequences together with their reported answers.
SSDKVYAHQMD [MLH1_Y379_V384D]; 0.576
QEALEYFMKQI [PIK3CA_Y1038_M1043I]; 0.455
CLMILYRLKER [PTPRR_Y249]; 0.901

Turning now to a further sequence:
Problem: Test system c-Src SH2; read-out SH2 binding enrichment; what value for TDGNGYISFNE [LCP1_Y28] ?;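 also: peptide library displayed on the E. coli surface as eCPX fusions, selected cells deep-sequenced, score is each peptide's frequency after selection divided by its frequency in the input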
Solution: 36

====

# System: AncSZ
# assay.details: phosphorylation enrichment, bacterial display (enrichment ratio); higher = better substrate or ligand; peptides without Tyr show the background
Decision: phosphorylation enrichment compared against 0.8; not below it gives MET, below it gives NOT MET.

Worked examples, 3 sequences total:
ADRTRYSAFGG [RBM4_Y361_A359T]; NOT MET
QNAGDYYDLYG [PTPN11_Y62_T59A]; MET
QDLFLYQTHSE [PKHD1_Y255]; MET

Problem: Hi, just wondering whether YEEDSYSHVMA [FDPS_Y388_I391V] shows phosphorylation enrichment of 0.8 or higher.
Solution: MET

Problem: Hi, just wondering whether ADARMYGVHPW [PLP1_Y207_L210H] shows phosphorylation enrichment of 0.8 or higher.
Solution: NOT MET

====

# Tested on: c-Abl (mouse)
# assay.details: phosphorylation enrichment, bacterial display (enrichment ratio); higher = better substrate or ligand; peptides without Tyr show the background
Decision: phosphorylation enrichment compared against 0.7; not below it gives MET, below it gives NOT MET.

Worked examples, 2 sequences total:
FVHDNYVIRRT [CPS1_Y1450]; NOT MET
SCTFTYLLGDR [ETHE1_Y38]; NOT MET

Problem: Hi, just wondering whether WPLKWYAPECI [ZAP70_Y506] shows phosphorylation enrichment of 0.7 or higher.
Solution: NOT MET

Problem: Hi, just wondering whether DVRQEYSGMIL [PLXND1_Y616_P617S] shows phosphorylation enrichment of 0.7 or higher.
Solution: NOT MET

Problem: Hi, just wondering whether DESEDCRDTVV [CNNM3_Y456_Y456C] shows phosphorylation enrichment of 0.7 or higher.
Solution: MET

Problem: Hi, just wondering whether EQFELHCEMGS [CBL_Y371_Y371H_YF] shows phosphorylation enrichment of 0.7 or higher.
Solution: MET

Problem: Hi, just wondering whether CRERPYGGGGG [FUS_Y526_R521C] shows phosphorylation enrichment of 0.7 or higher.
Solution: NOT MET

Problem: Hi, just wondering whether QFNIQYSSSAA [ERBB2IP_Y981_YF] shows phosphorylation enrichment of 0.7 or higher.
Solution: MET

Problem: Hi, just wondering whether VPVNGYQPVPA [ROR2_Y824] shows phosphorylation enrichment of 0.7 or higher.
Solution: NOT MET

Problem: Hi, just wondering whether QRPGLYDRPGA [HNRNPH2_Y210_P209L] shows phosphorylation enrichment of 0.7 or higher.
Solution: MET

Problem: Hi, just wondering whether EEQKRYYNAMK [SCN5A_Y1494_K1493R] shows phosphorylation enrichment of 0.7 or higher.
Solution: NOT MET

Problem: Hi, just wondering whether FGSIMYEFVGK [SLC18A1_Y251_V249I] shows phosphorylation enrichment of 0.7 or higher.
Solution: NOT MET

Problem: Hi, just wondering whether QGFDTYFGYLL [ARSB_Y165_R160Q] shows phosphorylation enrichment of 0.7 or higher.
Solution: MET

Problem: Hi, just wondering whether GKFFQYDTWNQ [IGF2_Y116_K120N] shows phosphorylation enrichment of 0.7 or higher.
Solution: MET
